Biological target: UniProt P51531
Experiment: ATPase catalytic activity assay (ADP-Glo), BRM
Conditions: 30 nM BRM, 400 μM ATP
quantity kind: BRM Max % Inhibition (%)

INSERT INTO assay_data (molecule, quantity_kind, obs_value) VALUES
  ('CN1CCN(c2cccc(-c3ccc4cnc(CNC(=O)c5ccc6c(c5)[C@](C)(C#N)COC6)cc4n3)n2)CC1 [Compound 465]', 'BRM Max % Inhibition', 99),
  ('C[C@@]1(C#N)COCc2ccc(C(=O)NCc3cc4nc(-c5cccnc5)ccc4cn3)cc21 [Compound 114]', 'BRM Max % Inhibition', 86),
  ('COc1ccc([C@H]2C[C@@H](c3ccnc(CNC(=O)c4ccc5c(c4)[C@](C)(C#N)COC5)c3)C2)cc1 [Compound 70]', 'BRM Max % Inhibition', 94),
  ('C[C@@]1(C#N)COCc2ccc(C(=O)NCc3cc4nc(-c5cccc(C(=O)N6CCC6)c5)ccc4cn3)cc21 [Compound 484]', 'BRM Max % Inhibition', 96);

----------
Target: BRM (Homo sapiens)
Sequence (P51531 whole entry): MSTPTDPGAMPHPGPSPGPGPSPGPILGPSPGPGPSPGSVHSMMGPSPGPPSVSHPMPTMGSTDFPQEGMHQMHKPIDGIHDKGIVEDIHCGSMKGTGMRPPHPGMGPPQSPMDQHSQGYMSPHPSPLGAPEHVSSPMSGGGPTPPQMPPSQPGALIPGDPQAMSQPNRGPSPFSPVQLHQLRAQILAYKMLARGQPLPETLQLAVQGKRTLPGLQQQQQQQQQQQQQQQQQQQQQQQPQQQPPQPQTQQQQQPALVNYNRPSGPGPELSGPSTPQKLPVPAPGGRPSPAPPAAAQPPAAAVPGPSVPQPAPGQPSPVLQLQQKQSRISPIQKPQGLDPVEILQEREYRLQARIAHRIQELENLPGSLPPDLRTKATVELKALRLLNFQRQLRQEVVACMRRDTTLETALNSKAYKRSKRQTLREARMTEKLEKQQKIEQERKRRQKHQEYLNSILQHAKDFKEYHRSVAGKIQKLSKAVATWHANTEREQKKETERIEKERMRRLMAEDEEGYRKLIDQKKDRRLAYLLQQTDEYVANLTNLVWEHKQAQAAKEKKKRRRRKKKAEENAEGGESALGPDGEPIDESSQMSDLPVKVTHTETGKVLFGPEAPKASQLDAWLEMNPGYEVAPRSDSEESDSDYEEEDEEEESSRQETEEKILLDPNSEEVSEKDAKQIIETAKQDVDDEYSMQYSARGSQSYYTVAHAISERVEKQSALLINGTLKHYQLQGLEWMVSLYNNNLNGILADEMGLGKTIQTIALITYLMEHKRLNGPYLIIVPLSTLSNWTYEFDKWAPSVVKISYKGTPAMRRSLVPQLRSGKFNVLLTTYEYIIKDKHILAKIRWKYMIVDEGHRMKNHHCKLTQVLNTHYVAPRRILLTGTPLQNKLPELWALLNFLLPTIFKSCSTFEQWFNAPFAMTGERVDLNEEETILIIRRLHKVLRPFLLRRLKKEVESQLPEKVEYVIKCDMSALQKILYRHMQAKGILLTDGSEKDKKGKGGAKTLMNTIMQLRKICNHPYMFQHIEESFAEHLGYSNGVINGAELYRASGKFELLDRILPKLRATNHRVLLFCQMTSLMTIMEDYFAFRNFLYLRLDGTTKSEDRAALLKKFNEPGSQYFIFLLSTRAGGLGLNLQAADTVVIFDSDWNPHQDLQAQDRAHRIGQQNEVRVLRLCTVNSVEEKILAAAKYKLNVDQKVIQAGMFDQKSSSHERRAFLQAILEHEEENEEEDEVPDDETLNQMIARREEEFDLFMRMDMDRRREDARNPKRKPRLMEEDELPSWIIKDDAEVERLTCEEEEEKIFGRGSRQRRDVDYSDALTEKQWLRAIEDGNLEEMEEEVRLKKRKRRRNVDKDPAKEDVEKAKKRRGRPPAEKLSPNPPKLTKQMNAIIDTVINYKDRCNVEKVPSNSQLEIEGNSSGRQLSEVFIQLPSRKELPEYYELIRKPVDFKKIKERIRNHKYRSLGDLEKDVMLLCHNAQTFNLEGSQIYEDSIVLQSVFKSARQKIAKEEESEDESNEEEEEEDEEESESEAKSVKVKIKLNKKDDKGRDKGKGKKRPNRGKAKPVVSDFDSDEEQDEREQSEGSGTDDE
Assay: ATPase catalytic activity assay (ADP-Glo), BRM
Details: 30 nM BRM, 400 μM ATP
quantity kind: BRM Max % Inhibition (%)

INSERT INTO assay_data (compound, measured_target, obs_value) VALUES
  ('C[C@@]1(C#N)COCc2ncc(C(=O)NCc3cc4nc(-c5cccc(C6CC6)c5)ccc4nn3)cc21 [Compound 198]', 'BRM (Homo sapiens)', 94),
  ('C[C@@]1(C#N)COCc2ccc(C(=O)NCc3cc([C@@H]4C[C@H]4c4ccccc4)ccn3)cc21 [Compound 8]', 'BRM (Homo sapiens)', 73),
  ('C[C@@]1(C#N)COCc2ccc(C(=O)NCc3cc4cc(-c5nccc(N6CCC6)n5)ccc4nn3)cc21 [Compound 335]', 'BRM (Homo sapiens)', 101),
  ('CNC(=O)c1cccc(-c2ccc3cnc(CNC(=O)c4ccc5c(c4)[C@](C)(C#N)COC5)cc3n2)n1 [Compound 466]', 'BRM (Homo sapiens)', 99),
  ('COC(=O)c1cccc(C#Cc2ccnc(CNC(=O)c3ccc4c(c3)[C@](C)(C#N)COC4)c2)c1 [Compound 3]', 'BRM (Homo sapiens)', 99),
  ('CN1Cc2nc(-c3ccc4cnc(CNC(=O)c5ccc6c(c5)[C@](C)(C#N)COC6)cc4n3)ccc2C1=O [Compound 427]', 'BRM (Homo sapiens)', 99),
  ('CN1Cc2cc(-c3ccc4cnc(CNC(=O)c5ccc6c(c5)[C@](C)(C#N)COC6)cc4n3)ccc2C1=O [Compound 495]', 'BRM (Homo sapiens)', 99);

----------
Each record here notes measured pIC50.
Molecular target: BRG-1 (Homo sapiens)
Sequence (P51532 whole entry): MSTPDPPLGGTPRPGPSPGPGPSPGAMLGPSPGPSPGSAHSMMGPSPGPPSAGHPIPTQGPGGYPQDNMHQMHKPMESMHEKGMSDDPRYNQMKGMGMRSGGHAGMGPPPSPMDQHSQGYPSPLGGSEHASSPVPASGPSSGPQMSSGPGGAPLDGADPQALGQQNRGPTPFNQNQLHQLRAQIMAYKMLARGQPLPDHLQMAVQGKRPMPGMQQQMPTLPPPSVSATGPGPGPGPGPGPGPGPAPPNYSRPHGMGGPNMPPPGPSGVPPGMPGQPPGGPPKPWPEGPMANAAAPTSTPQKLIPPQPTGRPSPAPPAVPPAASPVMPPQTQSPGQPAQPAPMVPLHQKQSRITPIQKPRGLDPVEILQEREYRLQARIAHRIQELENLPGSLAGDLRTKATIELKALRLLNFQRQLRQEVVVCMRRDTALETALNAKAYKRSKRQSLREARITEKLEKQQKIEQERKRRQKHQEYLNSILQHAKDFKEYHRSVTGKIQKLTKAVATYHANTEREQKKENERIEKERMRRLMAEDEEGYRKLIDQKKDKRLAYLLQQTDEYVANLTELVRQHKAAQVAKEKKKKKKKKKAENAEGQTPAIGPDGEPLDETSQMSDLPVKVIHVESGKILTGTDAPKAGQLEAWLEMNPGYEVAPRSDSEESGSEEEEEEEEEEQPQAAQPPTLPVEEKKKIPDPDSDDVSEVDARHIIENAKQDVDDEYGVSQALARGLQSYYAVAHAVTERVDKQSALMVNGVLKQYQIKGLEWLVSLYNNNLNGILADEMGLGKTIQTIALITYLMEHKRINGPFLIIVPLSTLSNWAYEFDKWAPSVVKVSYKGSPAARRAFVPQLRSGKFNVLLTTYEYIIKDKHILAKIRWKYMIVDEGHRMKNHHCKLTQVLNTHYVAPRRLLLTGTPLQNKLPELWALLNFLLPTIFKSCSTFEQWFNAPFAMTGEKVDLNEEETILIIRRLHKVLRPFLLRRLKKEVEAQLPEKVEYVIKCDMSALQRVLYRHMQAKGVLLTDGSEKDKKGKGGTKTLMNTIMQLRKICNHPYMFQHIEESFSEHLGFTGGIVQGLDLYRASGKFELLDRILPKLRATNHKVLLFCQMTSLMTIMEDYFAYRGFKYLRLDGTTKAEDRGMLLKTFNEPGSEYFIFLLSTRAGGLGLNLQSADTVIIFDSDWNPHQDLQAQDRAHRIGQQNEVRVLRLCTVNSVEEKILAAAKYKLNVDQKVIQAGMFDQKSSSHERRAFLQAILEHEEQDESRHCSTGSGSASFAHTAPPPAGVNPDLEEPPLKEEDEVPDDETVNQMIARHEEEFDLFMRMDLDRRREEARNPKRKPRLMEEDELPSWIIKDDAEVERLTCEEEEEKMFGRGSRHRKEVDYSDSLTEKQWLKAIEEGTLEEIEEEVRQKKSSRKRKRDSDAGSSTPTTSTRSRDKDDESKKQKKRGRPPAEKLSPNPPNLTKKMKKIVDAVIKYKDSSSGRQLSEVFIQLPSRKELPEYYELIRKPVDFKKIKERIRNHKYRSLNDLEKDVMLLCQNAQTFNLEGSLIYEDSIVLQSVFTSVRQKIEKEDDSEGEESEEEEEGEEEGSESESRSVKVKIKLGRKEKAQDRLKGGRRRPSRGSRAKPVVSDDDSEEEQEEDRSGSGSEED
Experiment: ATPase catalytic activity assay (ADP-Glo), BRG-1
pIC50: −log10 of the molar value.

INSERT INTO measurements (molecule, measured_target, obs_value) VALUES
  ('C[C@@]1(C#N)COCc2ccc(C(=O)NCc3cc4nc(N5CCCC5=O)ccc4cn3)cc21', 'BRG-1 (Homo sapiens)', '< 6.00'),
  ('C[C@@]1(C#N)COCc2ccc(C(=O)NCc3cc4nc(N5CCn6nccc6C5)ccc4cn3)cc21', 'BRG-1 (Homo sapiens)', '< 6.00'),
  ('C[C@@]1(C#N)COCc2ccc(C(=O)NCc3ncc4ccc(-c5ccccc5)nc4c3F)cc21', 'BRG-1 (Homo sapiens)', '6.00 to 6.30'),
  ('COc1nn(C2CC2(F)F)cc1-c1ccc2cnc(CNC(=O)c3ccc4c(c3)[C@](C)(C#N)COC4)cc2n1 (stereo partly shown)', 'BRG-1 (Homo sapiens)', '6.00 to 6.30'),
  ('C[C@@]1(F)COCc2ccc(C(=O)NCc3cc4nc(-c5ccnc(C6CC6)n5)sc4cn3)cc21', 'BRG-1 (Homo sapiens)', '< 6.00');

Challenge: pIC50 for "C[C@@]1(C#N)COCc2ccc(C(=O)NCc3cc([C@H]4C[C@H](c5ccccc5)C4)ccn3)cc21" ?
Response given: < 6.00

Challenge: Please give the result for "COc1cc(Cl)ccc1-c1ccc2cnc(CNC(=O)c3ccc4c(c3)[C@](C)(C#N)COC4)cc2n1" too.
Response given: 6.30 to 7.00
